# credit: the supplement of paper PMC10567573

B1: CDC25B (parent)
chain: ELKTFRLKTRSWAGERSRRELCSR

variants of: B1; assay: protein stability index of a GFP-peptide fusion (GPS, HEK-293T) (PSI 1-6); higher = more stable; conditions: c terminus: a fixed tail appended;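 also: lentivirally expressed fusions sorted by FACS into six bins by GFP to DsRed ratio, PSI derived from sequencing read proportions per bin multiplied by bin number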
Decision: protein stability index >= 3 yields Satisfied, all other cases yield Not satisfied.

>  <MUTATION_DESCRIPTOR>
T9E

>  <ANSWER_LABEL>
Satisfied

$$$$
>  <MUTATION_DESCRIPTOR>
L2N

>  <ANSWER_LABEL>
Satisfied

$$$$
>  <MUTATION_DESCRIPTOR>
K3G

>  <ANSWER_LABEL>
Satisfied

$$$$
>  <MUTATION_DESCRIPTOR>
K8W

>  <ANSWER_LABEL>
Not satisfied

$$$$
>  <MUTATION_DESCRIPTOR>
S17F

>  <ANSWER_LABEL>
Not satisfied

$$$$
>  <MUTATION_DESCRIPTOR>
S17M

>  <ANSWER_LABEL>
Not satisfied

$$$$
>  <MUTATION_DESCRIPTOR>
R18A

>  <ANSWER_LABEL>
Satisfied

$$$$
>  <MUTATION_DESCRIPTOR>
E20V

>  <ANSWER_LABEL>
Not satisfied

$$$$
>  <MUTATION_DESCRIPTOR>
R6S

>  <ANSWER_LABEL>
Satisfied

$$$$
>  <MUTATION_DESCRIPTOR>
T9K

>  <ANSWER_LABEL>
Satisfied

$$$$
>  <MUTATION_DESCRIPTOR>
E1M

>  <ANSWER_LABEL>
Not satisfied

$$$$
>  <MUTATION_DESCRIPTOR>
L21G

>  <ANSWER_LABEL>
Satisfied

$$$$
>  <MUTATION_DESCRIPTOR>
R6Y

>  <ANSWER_LABEL>
Not satisfied

$$$$
>  <MUTATION_DESCRIPTOR>
C22Y

>  <ANSWER_LABEL>
Not satisfied

$$$$
>  <MUTATION_DESCRIPTOR>
R16K

>  <ANSWER_LABEL>
Not satisfied

$$$$
>  <MUTATION_DESCRIPTOR>
R10L

>  <ANSWER_LABEL>
Satisfied

$$$$
>  <MUTATION_DESCRIPTOR>
T4D

>  <ANSWER_LABEL>
Satisfied

$$$$
>  <MUTATION_DESCRIPTOR>
L7G

>  <ANSWER_LABEL>
Satisfied

$$$$
>  <MUTATION_DESCRIPTOR>
E20W

>  <ANSWER_LABEL>
Not satisfied

$$$$
>  <MUTATION_DESCRIPTOR>
F5M

>  <ANSWER_LABEL>
Satisfied

$$$$
>  <MUTATION_DESCRIPTOR>
T4N

>  <ANSWER_LABEL>
Not satisfied

$$$$
>  <MUTATION_DESCRIPTOR>
E15L

>  <ANSWER_LABEL>
Not satisfied

$$$$
>  <MUTATION_DESCRIPTOR>
E20H

>  <ANSWER_LABEL>
Satisfied

$$$$
>  <MUTATION_DESCRIPTOR>
R18H

>  <ANSWER_LABEL>
Satisfied

$$$$
>  <MUTATION_DESCRIPTOR>
R10K

>  <ANSWER_LABEL>
Satisfied

$$$$
>  <MUTATION_DESCRIPTOR>
S11V

>  <ANSWER_LABEL>
Not satisfied

$$$$
>  <MUTATION_DESCRIPTOR>
R19Q

>  <ANSWER_LABEL>
Satisfied

$$$$
>  <MUTATION_DESCRIPTOR>
E1S

>  <ANSWER_LABEL>
Satisfied

$$$$
>  <MUTATION_DESCRIPTOR>
R16D

>  <ANSWER_LABEL>
Satisfied

$$$$
>  <MUTATION_DESCRIPTOR>
K8C

>  <ANSWER_LABEL>
Not satisfied

$$$$
>  <MUTATION_DESCRIPTOR>
A13S

>  <ANSWER_LABEL>
Not satisfied

$$$$
>  <MUTATION_DESCRIPTOR>
S11W

>  <ANSWER_LABEL>
Not satisfied

$$$$
>  <MUTATION_DESCRIPTOR>
K3Q

>  <ANSWER_LABEL>
Satisfied

$$$$
>  <MUTATION_DESCRIPTOR>
E1F

>  <ANSWER_LABEL>
Not satisfied

$$$$
>  <MUTATION_DESCRIPTOR>
R19N

>  <ANSWER_LABEL>
Satisfied

$$$$
>  <MUTATION_DESCRIPTOR>
S23T

>  <ANSWER_LABEL>
Satisfied

$$$$
>  <MUTATION_DESCRIPTOR>
W12F

>  <ANSWER_LABEL>
Satisfied

$$$$
>  <MUTATION_DESCRIPTOR>
R6F

>  <ANSWER_LABEL>
Not satisfied

$$$$
>  <MUTATION_DESCRIPTOR>
S17R

>  <ANSWER_LABEL>
Not satisfied

$$$$
>  <MUTATION_DESCRIPTOR>
R6C

>  <ANSWER_LABEL>
Not satisfied

$$$$
>  <MUTATION_DESCRIPTOR>
L2W

>  <ANSWER_LABEL>
Not satisfied

$$$$
>  <MUTATION_DESCRIPTOR>
R24K

>  <ANSWER_LABEL>
Satisfied

$$$$
>  <MUTATION_DESCRIPTOR>
E1L

>  <ANSWER_LABEL>
Not satisfied

$$$$
>  <MUTATION_DESCRIPTOR>
R6D

>  <ANSWER_LABEL>
Satisfied

$$$$
>  <MUTATION_DESCRIPTOR>
C22G

>  <ANSWER_LABEL>
Satisfied

$$$$
>  <MUTATION_DESCRIPTOR>
L21I

>  <ANSWER_LABEL>
Not satisfied

$$$$
>  <MUTATION_DESCRIPTOR>
L21K

>  <ANSWER_LABEL>
Satisfied

$$$$
>  <MUTATION_DESCRIPTOR>
R16Y

>  <ANSWER_LABEL>
Satisfied

$$$$
>  <MUTATION_DESCRIPTOR>
F5P

>  <ANSWER_LABEL>
Satisfied

$$$$
>  <MUTATION_DESCRIPTOR>
K3N

>  <ANSWER_LABEL>
Satisfied

$$$$
>  <MUTATION_DESCRIPTOR>
R18E

>  <ANSWER_LABEL>
Satisfied

$$$$
>  <MUTATION_DESCRIPTOR>
E1H

>  <ANSWER_LABEL>
Satisfied

$$$$
>  <MUTATION_DESCRIPTOR>
K3R

>  <ANSWER_LABEL>
Satisfied

$$$$
>  <MUTATION_DESCRIPTOR>
R6T

>  <ANSWER_LABEL>
Satisfied

$$$$
>  <MUTATION_DESCRIPTOR>
G14S

>  <ANSWER_LABEL>
Not satisfied

$$$$
>  <MUTATION_DESCRIPTOR>
W12R

>  <ANSWER_LABEL>
Satisfied

$$$$
>  <MUTATION_DESCRIPTOR>
S11P

>  <ANSWER_LABEL>
Not satisfied

$$$$
>  <MUTATION_DESCRIPTOR>
L7N

>  <ANSWER_LABEL>
Satisfied

$$$$
>  <MUTATION_DESCRIPTOR>
F5I

>  <ANSWER_LABEL>
Satisfied

$$$$
>  <MUTATION_DESCRIPTOR>
W12S

>  <ANSWER_LABEL>
Satisfied

$$$$
>  <MUTATION_DESCRIPTOR>
W12D

>  <ANSWER_LABEL>
Satisfied

$$$$
>  <MUTATION_DESCRIPTOR>
K8T

>  <ANSWER_LABEL>
Satisfied

$$$$
>  <MUTATION_DESCRIPTOR>
R19S

>  <ANSWER_LABEL>
Satisfied

$$$$
>  <MUTATION_DESCRIPTOR>
L7Q

>  <ANSWER_LABEL>
Satisfied

$$$$
>  <MUTATION_DESCRIPTOR>
R18K

>  <ANSWER_LABEL>
Satisfied

$$$$
>  <MUTATION_DESCRIPTOR>
W12A

>  <ANSWER_LABEL>
Satisfied

$$$$
>  <MUTATION_DESCRIPTOR>
T9Y

>  <ANSWER_LABEL>
Satisfied

$$$$
>  <MUTATION_DESCRIPTOR>
S23R

>  <ANSWER_LABEL>
Not satisfied

$$$$
>  <MUTATION_DESCRIPTOR>
T4P

>  <ANSWER_LABEL>
Satisfied

$$$$
>  <MUTATION_DESCRIPTOR>
L21Q

>  <ANSWER_LABEL>
Satisfied

$$$$
>  <MUTATION_DESCRIPTOR>
T9L

>  <ANSWER_LABEL>
Not satisfied

$$$$
>  <MUTATION_DESCRIPTOR>
E20L

>  <ANSWER_LABEL>
Not satisfied

$$$$
>  <MUTATION_DESCRIPTOR>
E15D

>  <ANSWER_LABEL>
Satisfied

$$$$
>  <MUTATION_DESCRIPTOR>
R16E

>  <ANSWER_LABEL>
Satisfied

$$$$
>  <MUTATION_DESCRIPTOR>
L7Y

>  <ANSWER_LABEL>
Satisfied

$$$$
>  <MUTATION_DESCRIPTOR>
E20T

>  <ANSWER_LABEL>
Not satisfied

$$$$
>  <MUTATION_DESCRIPTOR>
G14M

>  <ANSWER_LABEL>
Not satisfied

$$$$
>  <MUTATION_DESCRIPTOR>
R16I

>  <ANSWER_LABEL>
Not satisfied

$$$$
>  <MUTATION_DESCRIPTOR>
T4K

>  <ANSWER_LABEL>
Not satisfied

$$$$
>  <MUTATION_DESCRIPTOR>
F5H

>  <ANSWER_LABEL>
Satisfied

$$$$
>  <MUTATION_DESCRIPTOR>
R24I

>  <ANSWER_LABEL>
Not satisfied

$$$$
